growth listing for selected compounds.
test system: HT29 colon; assay: NCI-60 one-dose screen, 48 h (100 = growth as untreated, 0 = no growth, -100 = all killed); conditions: 10 µM unless noted
This is part of a sample that, as a whole, favours compounds with a hit. Of some 83,000 tested, about 20% had one in any assay.
Answer format: numeric, % implied, no suffix.

Here is how some compounds turned out for growth.
[[record]]
compound = "O=C(NCc1ccccc1)Nc1ccccc1CNc1nc(Nc2ccc(OCCN3CCCC3)cc2)ncc1Cl"
value_kind = "growth"
assay_result = 68.4

[[record]]
compound = "Cc1nnc(NC(=O)c2nc(S(=O)(=O)Cc3ccc(F)cc3)ncc2Cl)s1"
value_kind = "growth"
assay_result = 23.8

[[record]]
compound = "CCc1ccc(Oc2cn[nH]c2-c2ccc(OCCc3ccc(F)cc3)cc2O)cc1"
value_kind = "growth"
assay_result = 42.4


Req: Using the record for "COc1ccc(NC(=O)c2sc3nc(C)c(C(=O)/C=C/c4cccc(OC)c4)cc3c2N)cc1" , report its growth.
Resp: 1.21

Req: Recorded growth for CC12CCC3c4ccccc4CCC3(CO1)C2 (stereo not drawn) , please?
Resp: 100

Req: Fill in: growth of "COc1cc2c(c(OC)c1OC)-c1ccc(OC)c(=O)cc1[C@@H](NC(=O)CCl)CC2" is ___
Resp: 4.97

Req: Query: growth; subject: "CCC(=C(c1ccc(OCCN2CCCC2)cc1)c1ccc(OCCN2CCCC2)cc1)c1ccc(Cl)cc1"
Resp: -49.9

Req: Item under review: "C=C(C)[C@@H]1CC[C@]2(C(=O)O)CC[C@]3(C)[C@H](CC[C@@H]4[C@@]5(C)C[C@@H](Cc6cn(CCO[C@@H]7O[C@H](COC(C)=O)[C@H](OC(C)=O)[C@H](OC(C)=O)[C@H]7OC(C)=O)nn6)[C@H](O)C(C)(C)[C@@H]5CC[C@]43C)[C@@H]12" . Reported growth?
Resp: 77.9

Req: Record request: growth value, item "Cc1ccc(-c2nc3nc(-c4ccc(F)cc4)nc(N4CCNCC4)c3o2)cc1"
Resp: -78.1

Req: For the compound "O=c1oc2ccc([N+](=O)[O-])cc2cc1Br" , what growth is on record?
Resp: 102

Req: Record request: growth value, item "CCS/C(Nc1ccccc1)=C(\C#N)C(=O)N/N=C/c1ccc(Cl)cc1Cl"
Resp: 9.53

Req: What growth value was documented for this compound, CCN1C(=O)N(CC)C2C1NN=c1s/c(=C\c3ccc(Cl)cc3Cl)c(=O)n12 (stereo not drawn) ?
Resp: 2.8

Req: What does the data say about its growth? Entry: OCCCC1CCN(C(Cc2ccccc2)c2ccccc2)CC1 (stereo not drawn)
Resp: 76.5

Req: For "O=C(CSc1nnc2n1S(=O)(=O)c1ccccc1N2c1ccccc1)Nc1nc2ccc(F)cc2s1" , what is its reported growth?
Resp: 104

Req: Value lookup for growth; key = "CN1C(=O)/C(=C/c2cn(-c3ccccc3)nc2-c2ccccc2)SC1=S"
Resp: 109

Req: Bench note: what growth did "N#Cc1c(-c2ccccc2)cc(-c2ccccc2)n(CCCCCC(=O)Nc2ccccc2N)c1=O" show?
Resp: 43.7

Req: growth for "COC(=O)[C@]1(C)CCC[C@]2(C)[C@H]3C[C@H]4C(C(C)C)=C[C@]3(CC[C@H]21)[C@H]1[C@@H]4[C@@H](OCCC#N)CC[C@@H]1OCCC#N" ?
Resp: 6.91

Req: Return reported growth; argument: "Cc1ccc(-c2nc(/C=C3/C(=O)Nc4ccccc43)c3ccccn23)cc1"
Resp: 42.3
